test target: UniProt:Q7Z2W7
method description: Antagonist activity at human TRPM8 expressed in HEK293 cells assessed as reduction in menthol induced calcium influx
Assay type: cell-based
pIC50: −log10 of the molar value.
experimental endpoint: pIC50

Ask | Supply reported pIC50 belonging to this compound: Cc1ccc2nc(C(F)(F)F)n(-c3ccc(C(=O)CN4C(=O)NC5(CCC(F)(F)CC5)C4=O)cc3)c2n1
Reply | > 8.00

---

test target: Transient receptor potential cation channel subfamily M member 8 (Homo sapiens, UniProt Q7Z2W7)
Sequence (Q7Z2W7 whole entry): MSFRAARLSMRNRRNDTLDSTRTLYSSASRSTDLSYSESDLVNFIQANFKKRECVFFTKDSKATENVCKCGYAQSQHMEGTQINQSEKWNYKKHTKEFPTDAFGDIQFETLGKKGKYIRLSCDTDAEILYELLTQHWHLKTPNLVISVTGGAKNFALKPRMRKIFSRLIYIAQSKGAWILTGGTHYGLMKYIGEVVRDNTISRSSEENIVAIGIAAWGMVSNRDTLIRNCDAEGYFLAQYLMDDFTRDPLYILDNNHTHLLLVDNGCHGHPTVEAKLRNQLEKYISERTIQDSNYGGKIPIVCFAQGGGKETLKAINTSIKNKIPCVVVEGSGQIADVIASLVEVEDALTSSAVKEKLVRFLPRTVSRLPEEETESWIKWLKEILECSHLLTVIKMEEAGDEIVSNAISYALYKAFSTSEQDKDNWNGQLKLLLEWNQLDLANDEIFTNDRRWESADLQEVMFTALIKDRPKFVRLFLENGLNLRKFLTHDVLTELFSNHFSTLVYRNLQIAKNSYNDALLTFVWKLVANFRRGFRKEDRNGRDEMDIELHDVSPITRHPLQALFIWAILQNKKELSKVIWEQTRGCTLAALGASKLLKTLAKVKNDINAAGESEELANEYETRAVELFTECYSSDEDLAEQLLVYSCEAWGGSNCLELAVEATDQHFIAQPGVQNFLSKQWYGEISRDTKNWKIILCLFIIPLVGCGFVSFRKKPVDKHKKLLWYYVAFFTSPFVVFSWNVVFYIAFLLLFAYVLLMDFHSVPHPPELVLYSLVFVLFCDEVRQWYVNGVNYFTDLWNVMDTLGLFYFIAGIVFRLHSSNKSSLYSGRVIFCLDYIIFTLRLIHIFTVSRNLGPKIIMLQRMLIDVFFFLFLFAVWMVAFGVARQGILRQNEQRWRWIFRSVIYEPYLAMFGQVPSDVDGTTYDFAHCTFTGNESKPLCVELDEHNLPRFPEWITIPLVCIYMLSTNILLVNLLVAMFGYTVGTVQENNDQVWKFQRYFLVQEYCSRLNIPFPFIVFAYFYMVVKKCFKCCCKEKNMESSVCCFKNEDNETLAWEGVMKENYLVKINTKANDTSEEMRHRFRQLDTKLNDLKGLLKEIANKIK
method description: Agonist activity at human TRMP8 expressed in HEK293 cells
Format: cell-based
experimental endpoint: EC50
Numeric answer plus unit only.

Ask | Supply reported EC50 belonging to this compound: C=CCc1ccc(O)c(OC)c1 [EUGENOL]
Reply | 66 µM

---

test target: UniProt:Q7Z2W7
method description: Agonist activity at human recombinant TRPM8
experimental endpoint: pEC50
Recall that pEC50 is obtained by taking minus log10 of the concentration measured in molar.

Ask | # lookup: UniProt:Q7Z2W7 pEC50, key = COc1cnc(-c2ccccn2)nc1CC(C)C
Reply | 7.00

---

test target: Transient receptor potential cation channel subfamily M member 8 (Homo sapiens)
method description: Antagonist activity at TRPM8 (unknown origin) by fluorescence based assay
experimental endpoint: IC50 (µM)
Numeric only. Scale: µM

Ask | Supply reported IC50 belonging to this molecule: COC(=O)C(NCc1ccccc1)[C@H](Cc1ccccc1)NC(=O)OCc1ccccc1 (stereo partly specified)
Reply | 3

---

test target: UniProtKB Q7Z2W7
method description: Agonist activity at TRPM8 (unknown origin) by fluorometric imaging plate reader analysis
experimental endpoint: pEC50
Recall that pEC50 is obtained by taking minus log10 of the concentration measured in molar.

Ask | Supply reported pEC50 belonging to this compound: COc1ccc(NC(=O)[C@@H]2C[C@H](C)CC[C@H]2C(C)C)c(NC(=O)[C@@H](C)N)c1
Reply | 5.52

Ask | Supply reported pEC50 belonging to this compound: C=CCc1cc(OC)c(OC(C)C(O[C@@H]2C[C@H](C)CC[C@H]2C(C)C)c2ccc(OC)c(OC)c2)c(OC)c1 (some centres not stated)
Reply | 5.00

Ask | Supply reported pEC50 belonging to this compound: CC(C)[C@@H]1CC[C@@H](C)C[C@H]1C(=O)Nc1ccc(S(=O)(=O)Nc2ncccn2)cc1
Reply | 5.40

Ask | Supply reported pEC50 belonging to this compound: COc1ccc(NC(=O)[C@@H]2C[C@H](C)CC[C@H]2C(C)C)cc1
Reply | 4.92

Ask | Supply reported pEC50 belonging to this compound: CC(C)[C@@H]1CC[C@@H](C)C[C@H]1OC(=O)[C@@H](C)O
Reply | 3.80

---

test target: Transient receptor potential cation channel subfamily M member 8 (Homo sapiens)
method description: […] activity at human TRMP8 expressed in HEK293 cells measured after 24 hrs of menthol activation by patch clamp assay
Assay type: cell-based
experimental endpoint: pIC50
Recall that pIC50 is obtained by taking minus log10 of the concentration measured in molar.

Ask | # lookup: Transient receptor potential cation channel subfamily M member 8 (Homo sapiens) pIC50, key = Cc1c(N(Cc2ccc(F)c(C(F)(F)F)c2)S(=O)(=O)c2ccc(C(=O)O)cc2)sc2ccccc12
Reply | 8.96

---

test target: Transient receptor potential cation channel subfamily M member 8 (Homo sapiens, UniProt Q7Z2W7)
method description: Antagonist activity at human TRPM8 expressed in CHO cells
Format: cell-based
experimental endpoint: pIC50
Recall that pIC50 is obtained by taking minus log10 of the concentration measured in molar.

Ask | Supply reported pIC50 belonging to this molecule: O=C(N[C@]1(c2ccc(OC(F)(F)F)cc2)CCOc2cccnc21)c1ccc2[nH]cnc2c1
Reply | 8.40

---

test target: Transient receptor potential cation channel subfamily A member 1 (Homo sapiens, UniProt O75762)
Sequence (O75762 whole entry): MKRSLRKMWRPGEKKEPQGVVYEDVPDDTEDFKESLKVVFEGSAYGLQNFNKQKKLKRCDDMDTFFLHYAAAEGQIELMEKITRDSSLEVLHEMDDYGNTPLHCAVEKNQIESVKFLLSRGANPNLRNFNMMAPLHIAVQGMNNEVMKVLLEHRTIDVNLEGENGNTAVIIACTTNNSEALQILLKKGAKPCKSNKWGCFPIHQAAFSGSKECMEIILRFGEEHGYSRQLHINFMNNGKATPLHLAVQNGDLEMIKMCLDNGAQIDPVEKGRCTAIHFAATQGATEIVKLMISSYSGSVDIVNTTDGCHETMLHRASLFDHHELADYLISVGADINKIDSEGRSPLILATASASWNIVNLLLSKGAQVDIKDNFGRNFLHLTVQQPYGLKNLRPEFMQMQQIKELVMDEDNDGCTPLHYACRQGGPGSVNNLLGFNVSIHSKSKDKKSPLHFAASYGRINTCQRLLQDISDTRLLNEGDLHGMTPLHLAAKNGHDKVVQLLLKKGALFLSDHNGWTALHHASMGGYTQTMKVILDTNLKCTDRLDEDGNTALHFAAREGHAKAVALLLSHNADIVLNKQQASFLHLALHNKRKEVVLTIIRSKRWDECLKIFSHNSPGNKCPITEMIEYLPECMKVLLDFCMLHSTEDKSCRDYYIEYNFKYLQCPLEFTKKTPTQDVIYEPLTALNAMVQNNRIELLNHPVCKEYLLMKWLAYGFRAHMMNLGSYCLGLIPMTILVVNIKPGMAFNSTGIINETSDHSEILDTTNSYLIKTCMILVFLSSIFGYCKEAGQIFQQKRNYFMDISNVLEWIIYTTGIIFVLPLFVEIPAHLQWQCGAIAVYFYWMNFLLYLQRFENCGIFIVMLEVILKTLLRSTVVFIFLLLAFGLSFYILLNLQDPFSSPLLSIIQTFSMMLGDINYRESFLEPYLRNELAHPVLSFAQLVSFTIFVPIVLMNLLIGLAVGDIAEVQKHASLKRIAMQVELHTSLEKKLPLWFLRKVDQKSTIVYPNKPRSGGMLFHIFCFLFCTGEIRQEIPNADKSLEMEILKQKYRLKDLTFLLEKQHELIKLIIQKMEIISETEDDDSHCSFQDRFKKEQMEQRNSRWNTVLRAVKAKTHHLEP
method description: Agonist activity at TRPA1 (unknown origin)
experimental endpoint: EC50 (µM)
Numeric only. Scale: µM

Ask | Supply reported EC50 belonging to this compound: Clc1ccc(-c2nnc(N3CCOCC3)n2-c2ccccc2)cc1
Reply | 4

---

test target: Transient receptor potential cation channel subfamily M member 8 (Homo sapiens, UniProt Q7Z2W7)
method description: Antagonist activity at human TRPM8 expressed in […] induced HEK293 cells
Format: cell-based
experimental endpoint: pIC50
Recall that pIC50 is obtained by taking minus log10 of the concentration measured in molar.

Ask | Supply reported pIC50 belonging to this molecule: NCCc1c[nH]c2ccc(Oc3ccccc3)cc12
Reply | 6.47

---

test target: Transient receptor potential cation channel subfamily M member 8 (Homo sapiens, UniProt Q7Z2W7)
method description: Antagonist activity at human TRPM8 expressed in HEK293 cells
Format: cell-based
experimental endpoint: IC50
Numeric answer plus unit only.

Ask | Supply reported IC50 belonging to this compound: COc1cc(CN(CCN)C(=O)NC(C)c2ccccc2)ccc1OCc1ccccc1 (stereo unspecified)
Reply | 50 pM

---

test target: Transient receptor potential cation channel subfamily M member 8 (Homo sapiens, UniProt Q7Z2W7)
method description: Agonist activity at TRPM8 (unknown origin)
Provide the reported pEC50 of each item.
Recall that pEC50 is obtained by taking minus log10 of the concentration measured in molar.

Ask | Supply reported pEC50 belonging to this compound: Clc1ccc(-c2nnc(N3CCOCC3)n2-c2ccccc2)cc1
Reply | 4.35

Ask | Supply reported pEC50 belonging to this compound: Cc1cc(NC(C)C)no1
Reply | 7.00

---

Provide the reported IC50 of each item.
test target: Transient receptor potential cation channel subfamily M member 8 (Homo sapiens, UniProt Q7Z2W7)
method description: Antagonist activity at human TRMP8 incubated for 24 hrs
Format: cell-based, HEK293
Numeric only. Scale: nM

Ask | Supply reported IC50 belonging to this compound: COc1nc(-c2ccccc2Cl)cc2nc(-c3c(Cl)c(C(C)(C)C)nn3C)[nH]c12
Reply | 3.5

Ask | Supply reported IC50 belonging to this compound: CCn1/c(=N/S(=O)(=O)c2ccccc2)n(Cc2ccc(C(F)(F)F)c(F)c2)c2cc(C(F)(F)F)ccc21
Reply | 5

Ask | Supply reported IC50 belonging to this compound: CCn1c(N(Cc2ccc(C(F)(F)F)cc2)S(=O)(=O)c2ccccc2)nc2cc(F)ccc21
Reply | 6

---

test target: Transient receptor potential cation channel subfamily M member 8 (Homo sapiens, UniProt Q7Z2W7)
method description: Antagonist activity at TRPM8 (unknown origin)
Provide the reported pIC50 of each item.
Recall that pIC50 is obtained by taking minus log10 of the concentration measured in molar.

Ask | Supply reported pIC50 belonging to this molecule: C[C@H](N)[C@H](O)C/C=C\C/C=C\C/C=C\C/C=C\C/C=C\C/C=C\CCCCCC[C@@H](O)[C@H](C)N
Reply | 5.22

Ask | Supply reported pIC50 belonging to this molecule: C=C(C)[C@]12C[C@@H](C)[C@@]34OC(Cc5ccccc5)(O[C@@H]1C3C=C(COC(=O)Cc1ccc(O)c(OC)c1)C[C@]1(O)C(=O)C(C)=C[C@@H]41)O2 (stereo not given in full)
Reply | 6.82

Ask | Supply reported pIC50 belonging to this molecule: CCCCC/C=C/C/C=C\C/C=C/C/C=C/CCCC(=O)NCCO
Reply | 6.82

Ask | Supply reported pIC50 belonging to this molecule: CCCCCc1cc(O)c2c(c1)OC(C)(C)[C@@H]1CCC(C)=C[C@@H]21 [DRONABINOL]
Reply | 6.80
